- MOLECULE: "O/N=C1/CC(c2ccccc2)Cc2ccncc21 (stereo not given)"
  UNIT TAG: "°C"
  melting point: 227
- MOLECULE: "CC1(C)C2CCC1(C)C(C(=O)O)OC2=O (stereo not given)"
  UNIT TAG: "°C"
  melting point: 201
- MOLECULE: "CSC[C@H](N)C(=O)O"
  UNIT TAG: "°C"
  melting point: 240
- MOLECULE: "CCCCCC(=O)c1ccc(O)cc1O"
  UNIT TAG: "°C"
  melting point: 57
- MOLECULE: "CN(CCCC(=O)c1cccnc1)N=O"
  UNIT TAG: "°C"
  melting point: 67.5
- MOLECULE: "O=C(ON1C(=O)CCC1=O)ON1C(=O)CCC1=O"
  UNIT TAG: "°C"
  melting point: 190
- MOLECULE: "CC1CCCC(C)(C)C1=O (stereo not given)"
  UNIT TAG: "°C"
  melting point: -31.8
- MOLECULE: "O=Cc1cnc(N2CCCCC2)s1"
  UNIT TAG: "°C"
  melting point: 49
- MOLECULE: "Cc1ccnc(C)n1"
  UNIT TAG: "°C"
  melting point: -4
- MOLECULE: "Cc1c(C)c(C)c2c(c1C)CC1C=CC=CN1C2=O (stereo not given)"
  UNIT TAG: "°C"
  melting point: 139
- MOLECULE: "O=C1OC(c2ccc(O)c3ccccc23)(c2ccc(O)c3ccccc23)c2ccccc21"
  UNIT TAG: "°C"
  melting point: 254
- MOLECULE: "O[Si](O)(c1ccccc1)c1ccccc1"
  UNIT TAG: "°C"
  melting point: 202
- MOLECULE: "Nc1nc(-c2ccccc2)cs1"
  UNIT TAG: "°C"
  melting point: 150
- MOLECULE: "CCCC(=O)C=Cc1ccc(O)c(O)c1"
  UNIT TAG: "°C"
  melting point: 132
- MOLECULE: "NS(=O)(=O)c1ccc(S(=O)(=O)CCCCO)c(F)c1"
  UNIT TAG: "°C"
  melting point: 134
- MOLECULE: "CN1N=C(C(F)(F)F)CC1=O"
  UNIT TAG: "°C"
  melting point: 179
